Data origin: patent US8288424B2

Target: KCNQ2/3 channels (Homo sapiens, UniProt O43525+O43526)
Construct: expressed in transfected cells; host or cells: CHO-K1
Test: Fluorescence assay using a voltage-sensitive dye
Assay type: cell-based
Details: 10 μmol test substance; CHO-K1 cells expressing KCNQ2/3 channels; agonistic activity; read-out: % Stimulation [10 μmol] Average
measurement.type: activation at 10 µM (%)

Answered examples (3):
{"compound": "Cc1cc(C2CCc3nc(C(=O)N4CC5(C)CC4CC(C)(C)C5)cn3C2)ccc1F (centres unmarked) [Compound 84]", "measurement.type": "activation at 10 µM", "unit.annotation": "%", "quantitative.result": 37.9}
{"compound": "O=C(c1cn2c(n1)CCC(c1cc(F)ccc1F)C2)N1CCCC1 (centres unmarked) [Compound 36]", "measurement.type": "activation at 10 µM", "unit.annotation": "%", "quantitative.result": 21.7}
{"compound": "COc1ccc(C2CCc3nc(C(=O)N4CCCC4)cn3C2)c(OC)c1 (centres unmarked) [Compound 33]", "measurement.type": "activation at 10 µM", "unit.annotation": "%", "quantitative.result": 24.5}

(1) Cc1ccc(C2CCc3nc(C(=O)N4CCC(Cc5ccccc5)CC4)cn3C2)cc1 (centres unmarked) [Compound 73]
(2) Cc1cc(C2CCc3nc(C(=O)NCCC4CCCCC4)cn3C2)ccc1F (centres unmarked) [Compound 88]
(3) O=C(c1cn2c(n1)CCC(c1cccc(C(F)(F)F)c1)C2)N1CCN(c2ccccc2F)CC1 (centres unmarked) [Compound 32]
Rank entries according to their activation at 10 µM, from the largest number down. Answer format: the labels, ordered as requested.
1, 2, 3

(P) CCc1ccc(C2CCc3nc(C(=O)N4CCC(Cc5ccccc5)CC4)cn3C2)cc1 (centres unmarked) [Compound 11]
(Q) O=C(NCc1ccc2c(c1)OCO2)c1cn2c(n1)CCC(c1cc(C(F)(F)F)cc(C(F)(F)F)c1)C2 (centres unmarked) [Compound 42]
(R) O=C(c1cn2c(n1)CCC(c1cccc(F)c1)C2)N1CCC(Cc2ccccc2)CC1 (centres unmarked) [Compound 61]
(S) Cc1cccc(C2CCc3nc(C(=O)N4CCC(Cc5ccccc5)CC4)cn3C2)c1 (centres unmarked) [Compound 70]
List from greatest to least activation at 10 µM. Please express your ranking as an ordered list of the labels.
S, R, P, Q
(S: 123%, R: 82.2%, P: 38.5%, Q: 18.1%)

(P) COc1ccc(C2CCc3nc(C(=O)N4CCN(c5cccc(C(F)(F)F)c5)CC4)cn3C2)cc1 (centres unmarked) [Compound 69]
(Q) Cc1ccc(C2CCc3nc(C(=O)N4CCN(c5cccc(C(F)(F)F)c5)CC4)cn3C2)cc1 (centres unmarked) [Compound 74]
(R) Cc1ccccc1C1CCc2nc(C(=O)N3CCN(c4cccc(C(F)(F)F)c4)CC3)cn2C1 (centres unmarked) [Compound 35]
(S) COc1cccc(C2CCc3nc(C(=O)N4CCN(c5cccc(C(F)(F)F)c5)CC4)cn3C2)c1 (centres unmarked) [Compound 71]
Arrange by activation at 10 µM, high to low. Answer format: list of labels, ordered as asked.
S, Q, P, R

(A) COc1ccccc1N1CCN(C(=O)c2cn3c(n2)CCC(c2cc(C)c(OC)c(C)c2)C3)CC1 (centres unmarked) [Compound 10]
(B) Cc1cc(C2CCc3nc(C(=O)NC(C)c4ccccc4)cn3C2)ccc1F (centres unmarked) [Compound 14]
Lower value for measured activation at 10 µM? Options: A , B Write down the label attached to your selection.
A
(A: 15.7%, B: 24.7%)

(A) CC1(C)CC2CC(C)(CN2C(=O)c2cn3c(n2)CCC(c2ccccc2)C3)C1 (centres unmarked) [Compound 3]
(B) Cc1cc(C)cc(C(C)NC(=O)c2cn3c(n2)CCC(c2ccc(F)c(C)c2)C3)c1 (centres unmarked) [Compound 78]
# compare activation at 10 µM for A vs B ; return the one with the smaller value // return label of chosen record
A
(A: 16.7%, B: 29.7%)

(1) O=C(NC1CC1)c1cn2c(n1)CCC(c1ccc(Oc3ccccc3)cc1)C2 (centres unmarked) [Compound 26]
(2) O=C(c1cn2c(n1)CCC(c1ccc(F)cc1)C2)N1CCC(Cc2ccccc2)CC1 (centres unmarked) [Compound 41]
Identify the item whose activation at 10 µM is the smaller number: 1 or 2 Provide the label of your selected option as the answer.
1
(1: 17.4%, 2: 29.4%)

###

Biological target: KCNQ2/3 channels (Homo sapiens, UniProt O43525+O43526)
Construct: expressed in transfected cells; host or cells: CHO-K1
Assay: Fluorescence assay using a voltage-sensitive dye
Assay type: cell-based
Settings: 10 μmol test substance; CHO-K1 cells expressing KCNQ2/3 channels; agonistic activity; read-out: % Stimulation [10 μmol] Average
measurement.type: activation at 10 µM (%)

{"compound": "COc1c(C)cc(C2CCc3nc(C(=O)NCc4ccccc4)cn3C2)cc1C (stereo not shown)", "quantitative.result": 15.5}
{"compound": "Cc1cc(C2CCc3nc(C(=O)N4CCC(C(c5ccccc5)c5ccccc5)CC4)cn3C2)ccc1F (stereo not shown)", "quantitative.result": 33.3}

(I) Cc1cc(C2CCc3nc(C(=O)N4CCC(c5cccc(C(F)(F)F)c5)CC4)cn3C2)ccc1F (stereo not shown)
(II) CCCCCNC(=O)c1cn2c(n1)CCC(c1cc(C)c(OC)c(C)c1)C2 (stereo not shown)
Could you kindly indicate whether I or II has the higher activation at 10 µM value? Use the label to indicate which entry you chose.
I
(I: 120%, II: 16.8%)

(I) CC(CCc1ccccc1)NC(=O)c1cn2c(n1)CCC(c1cccc(F)c1)C2 (stereo not shown)
(II) COc1ccc(N2CCN(C(=O)c3cn4c(n3)CCC(c3cc(C)c(OC)c(C)c3)C4)CC2)cc1 (stereo not shown)
Among I and II , whose measured activation at 10 µM is the smaller figure? Returns: label corresponding to the selected item.
I

(I) Cc1cccc(C2CCc3nc(C(=O)N4CCN(c5cccc(C(F)(F)F)c5)CC4)cn3C2)c1 (stereo not shown)
(II) COc1ccc(OC)c(C2CCc3nc(C(=O)N4CC5(C)CC4CC(C)(C)C5)cn3C2)c1 (stereo not shown)
(III) O=C(c1cn2c(n1)CCC(c1ccccc1)C2)N(CCc1ccccc1)Cc1ccccc1 (stereo not shown)
(IV) CCc1ccc(C2CCc3nc(C(=O)NC(C)CCc4ccccc4)cn3C2)cc1 (stereo not shown)
Output the entries ranked by activation at 10 µM from maximum down to minimum. Give me the labels in the order the question wants.
I, II, IV, III
(I: 127%, II: 51.8%, IV: 34.2%, III: 20%)

(A) Cc1ccc(N2CCN(C(=O)c3cn4c(n3)CCC(c3ccc(F)c(C)c3)C4)CC2)cc1 (stereo not shown)
(B) CCc1ccc(C2CCc3nc(C(=O)NCCc4ccccc4)cn3C2)cc1 (stereo not shown)
(C) COc1cccc(C2CCc3nc(C(=O)N4CCC(Cc5ccccc5)CC4)cn3C2)c1 (stereo not shown)
hey, can you rank those compounds up there by activation at 10 µM? biggest number first please // format: requested-order list of labels
A, C, B
(A: 46.7%, C: 25.7%, B: 16.6%)

(I) O=C(c1cn2c(n1)CCC(c1cc(C(F)(F)F)cc(C(F)(F)F)c1)C2)N1CCCC1 (stereo not shown)
(II) Cc1ccccc1C1CCc2nc(C(=O)N3CCCC3)cn2C1 (stereo not shown)
// which entry has the larger activation at 10 µM value, I or II ? Let me know the label of the one you choose.
II
(II: 32.2%, I: 20.9%)

(a) COc1c(C)cc(C2CCc3nc(C(=O)NCc4ccc(F)cc4)cn3C2)cc1C (stereo not shown)
(b) COc1ccc(F)cc1C1CCc2nc(C(=O)N3CCC(Cc4ccccc4)CC3)cn2C1 (stereo not shown)
In terms of reported activation at 10 µM, does a or b have the smaller number? Mark your selection by writing its label.
a
(a: 15.1%, b: 29.1%)

(I) COc1c(C)cc(C2CCc3nc(C(=O)NCc4cccc(C(F)(F)F)c4)cn3C2)cc1C (stereo not shown)
(II) Cc1cc(C2CCc3nc(C(=O)N4CCN(Cc5ccccc5)CC4)cn3C2)ccc1F (stereo not shown)
Sorting ascending by activation at 10 µM, which comes first: I or II ? Give the chosen item's label as your response.
I

(1) CCc1ccc(C2CCc3nc(C(=O)N4CCCC4)cn3C2)cc1 (stereo not shown)
(2) Cc1cccc(C2CCc3nc(C(=O)N4CCCC4)cn3C2)c1 (stereo not shown)
Return label of the item with the larger activation at 10 µM. Candidates: 1 , 2 . Label of pick, please.
2

###

Biological target: KCNQ2/3 channels (Homo sapiens, UniProt O43525+O43526)
Construct: expressed in transfected cells; host or cells: CHO-K1
Test: Fluorescence assay using a voltage-sensitive dye
Assay type: cell-based
Conditions: 10 μmol test substance; CHO-K1 cells expressing KCNQ2/3 channels; agonistic activity; read-out: % Stimulation [10 μmol] Average
measurement.type: activation at 10 µM (%)

{"compound": "Cc1cc(C2CCc3nc(C(=O)N4CCN(c5ccccc5F)CC4)cn3C2)ccc1F (stereo not drawn) [Compound 13]", "measurement.type": "activation at 10 µM", "unit.annotation": "%", "quantitative.result": 18}
{"compound": "CCC(C)NC(=O)c1cn2c(n1)CCC(c1ccc(Oc3ccccc3)cc1)C2 (stereo not drawn) [Compound 18]", "measurement.type": "activation at 10 µM", "unit.annotation": "%", "quantitative.result": 18.6}
{"compound": "O=C(NCc1ccccc1)c1cn2c(n1)CCC(c1cc(C(F)(F)F)cc(C(F)(F)F)c1)C2 (stereo not drawn) [Compound 43]", "measurement.type": "activation at 10 µM", "unit.annotation": "%", "quantitative.result": 16.3}
